# Tested on: SK-OV-3 ovarian
# ASSAY PROTOCOL: NCI-60 one-dose screen, 48 h (100 = growth as untreated, 0 = no growth, -100 = all killed)
# EXPERIMENTAL CONDITIONS: 10 µM unless noted
This is part of a sample that, as a whole, favours compounds with a hit. Of some 83,000 tested, about 20% had one in any assay.
Threshold 90%. growth below it: true. growth at it or above: false.

Before answering, review these 6 worked examples.
CCCCCCCCNC(=O)[C@@H](N)CSCOC(C)=O ... false
CC1(C)C2=C(C(=O)N1Cc1ccccc1)C(c1ccco1)N(C(=O)C1CCC1)CCN2 (stereo not given) ... false
CCOc1cc(\C=N/N=C(N)/C(N)=N\N=C/c2ccc(O)c(OCC)c2)ccc1O ... false
COc1ccc(/C=N/NC(=O)Cn2nnc3ccccc32)cc1 ... false
COc1ccc(/C=C\c2cc(OC)c(OC)c(OC)c2)cc1OCC(=O)Nc1nc2ccccc2s1 ... true
O=c1c(Cc2ccc(F)cc2)cc(-c2ccccc2)nn1C/C(=N/O)c1ccccc1 ... true

--- query ---
In plain terms, does Cc1ccc(S(=O)(=O)N(CCC(=O)O)c2ccccc2)cc1 come in under 90% for growth? false

###

# System: IGROV1 ovarian
# ASSAY PROTOCOL: NCI-60 one-dose screen, 48 h
# EXPERIMENTAL CONDITIONS: 10 µM unless noted
The panel holds about 83,000 compounds, 20% with a hit somewhere; the sample as a whole holds those more often. The source made the active and inactive calls. How the source made its calls: active means growth percent below 10; inactive means the rest.
Could you please pick one outcome from this set? y = active, n = inactive

Before answering, review these 9 worked examples.
Oc1ccc(C(c2ccc(O)cc2)c2ccc(Cl)cn2)cc1 ... n
COc1ccc(Cn2cc3c(c2)-c2oncc2CC3)cc1 ... n
FC(F)(F)c1cc(N2CCCCC2)nc(NCCCNc2ccnc3cc(Cl)ccc23)n1 ... n
C/C(=N\NC(=O)c1ccc(C(C)(C)C)cc1)c1ccc(O)cc1O ... n
COc1cc(/C=C2\CN(S(=O)(=O)c3ccc(C)cc3)C/C(=C\c3cc(CN4CCCC4)c(O)c(OC)c3)C2=O)cc(CN2CCCC2)c1O ... y
CCOC(=O)c1c(Nc2nc3ccccc3s2)sc2c1CCC(=O)C2 ... n
Cc1oc2ccc(O)c(CN3CCCCCC3)c2c1C(=O)Nc1ccc(C(F)(F)F)cc1 ... n
COC(=O)CCc1c(/C=C2\N=C(c3ccc[nH]3)C=C2OC)[nH]c(C)c1C(=O)OCc1ccccc1 ... n
N#Cc1nn(-c2ccccn2)c(N)c1C#N ... n

Please let me know the test result on file for O=C(/C=C\c1ccc(O)c(O)c1)c1ccccc1O . n

###

Measured growth, listed per entry for reference.
# System: HOP-62 NSCLC
# ASSAY PROTOCOL: NCI-60 one-dose screen, 48 h (100 = growth as untreated, 0 = no growth, -100 = all killed)
# EXPERIMENTAL CONDITIONS: 10 µM unless noted
About 83,000 compounds went through this panel and 20% of them were active in at least one assay; those are over-represented in the sample as a whole.
Answer in %, number only, no unit symbol.

CN(C)c1ccc(Cc2cc(-c3ccccc3)nn(C/C(=N/O)c3ccccc3)c2=O)cc1 ... 75.1

Looking up O=[N+]([O-])c1ccc(N/N=C\c2cc(Cl)ccc2O)nc1 , I see its growth listed as 45.6

Looking up COC(=O)[C@@H](Cc1c[nH]c2ccccc12)NC(=O)[C@H](Cc1ccccc1)NCc1ccncc1 , I see its growth listed as 93.7

Looking up C=C(c1ccc(C(=O)O)c(F)c1)c1cc2c(cc1C)C(C)(C)C=CC2(C)C , I see its growth listed as 70

Looking up Cc1c2ccncc2c(C)c2c1c1ccccc1n2CCCCCC(=O)O , I see its growth listed as 83
